system-under-test: CCK receptor (pancreas) (Rattus norvegicus)
Construct: The whole pancreas was dissected free of fat tissue and was homogenized; from tissue; host or cells: rat pancreas membranes (Sprague-Dawley)
procedure-summary: CCK Receptor Binding (Pancreas): inhibition of ^125 I-CCK-33 binding
Parameters: species or system Male Sprague-Dawley rats
assay-context: read-out: IC50 ^125 I-CCK Pancreas; rat pancreas membranes, ^125 I-CCK-33, 37° C., 30 minutes
For each record, write down the corresponding pIC50.
# log scale: pIC50 equals minus log10 of the concentration in mol/L

What reported pIC50 corresponds to O=C(O)CCN1C(=O)[C@@H](Cc2c[nH]c3ccccc23)N=C(c2ccccc2F)c2ccccc21 on CCK receptor (pancreas) (Rattus norvegicus)?
5.85

What reported pIC50 corresponds to O=C1Nc2ccccc2C(c2ccccc2F)=N[C@@H]1CC1CNc2ccccc21 (stereo partly shown) on CCK receptor (pancreas) (Rattus norvegicus)?
4.78

What reported pIC50 corresponds to O=C(O)CN1C(=O)[C@@H](Cc2c[nH]c3ccccc23)N=C(c2ccccc2F)c2ccccc21 on CCK receptor (pancreas) (Rattus norvegicus)?
6.52

What reported pIC50 corresponds to CN1C(=O)[C@@H](Cc2cn(C(=O)c3ccc(Cl)cc3)c3ccccc23)N=C(c2ccccc2F)c2ccccc21 on CCK receptor (pancreas) (Rattus norvegicus)?
4.97

###

system-under-test: Gastrin receptor (gastric glands) (Cavia porcellus)
Construct: The washed guinea pig gastric glands prepared as above were resuspended; from tissue; host or cells: guinea pig gastric mucosal glands (male Hartley)
Sequence (H0VZC5 1-426): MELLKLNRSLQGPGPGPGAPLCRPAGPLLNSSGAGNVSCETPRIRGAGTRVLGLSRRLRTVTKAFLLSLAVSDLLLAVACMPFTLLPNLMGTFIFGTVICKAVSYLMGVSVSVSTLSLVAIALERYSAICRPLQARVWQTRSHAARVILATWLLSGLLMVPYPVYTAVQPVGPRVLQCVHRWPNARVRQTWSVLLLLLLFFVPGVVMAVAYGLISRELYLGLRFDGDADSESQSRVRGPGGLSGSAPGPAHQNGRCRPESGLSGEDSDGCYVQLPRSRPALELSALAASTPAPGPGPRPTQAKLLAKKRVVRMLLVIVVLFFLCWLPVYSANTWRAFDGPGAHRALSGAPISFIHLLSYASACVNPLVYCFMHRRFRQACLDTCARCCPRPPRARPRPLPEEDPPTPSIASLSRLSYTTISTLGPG
procedure-summary: Gastrin Receptor Binding in Guinea Pig Gastric Glands
Design: species or system guinea pig (male Hartley)
assay-context: IC50 ^125 I-Gastrin Gastric Glands, 25° C., 30 minutes
For each record, write down the corresponding IC50.
Numeric only. Scale: nM

Fill in: IC50 of CCOC(=O)CCN1C(=O)C(NC(=O)Nc2ccc(Cl)cc2)N=C(c2ccccc2)c2ccccc21 (stereo not shown) [Example 230] is ___
35

Fill in: IC50 of Cn1c(C(=O)NC2N=C(c3ccccc3F)c3ccccc3NC2=O)cc2ccccc21 (racemic) [Example 127] is ___
6300

Fill in: IC50 of COc1cccc(NC(=O)NC2N=C(c3ccccc3)c3ccccc3N(CC(=O)N3CCCC3)C2=O)c1 (stereo not shown) [Example 284] is ___
0.5

###

For each record, write down the corresponding log10 IC50.
system-under-test: CCK receptor (pancreas) (Rattus norvegicus, UniProt P30551)
Construct: The whole pancreas was dissected free of fat tissue and was homogenized; from tissue; host or cells: rat pancreas membranes (Sprague-Dawley)
procedure-summary: CCK Receptor Binding (Pancreas): inhibition of ^125 I-CCK-33 binding
Parameters: species or system Male Sprague-Dawley rats
assay-context: IC50 ^125 I-CCK Pancreas, rat pancreas membranes, ^125 I-CCK-33, 37° C., 30 minutes
Excerpt: 1. CCK Receptor Binding (Pancreas) CCK-33 was radiolabeled with ^125 I-Bolton Hunter reagent (2000 Ci/mmole) as described by Sankara et al. (J. Biol. Chem. 254: 9349-9351, 1979). […] Male Sprague-Dawley rats (200-350 g) were sacrificed by decapitation. […] The supernatant was aspirated and discarded, pellets were counted with a Beckman gamma 5000. […]
Please interpret these as log10 of IC50 where IC50 is in nM.

Fill in: log10 IC50 of Cc1ccc2c(c1)N(C)C(=O)C(NC(=O)c1cc3ccccc3[nH]1)N=C2c1ccccc1 (centres unmarked) [Example 294] is ___
-1.00

Fill in: log10 IC50 of CCN(CC)C(=O)CN1C(=O)C(NC(=O)OCc2ccccc2)N=C(c2ccccc2)c2ccccc21 (centres unmarked) [Example 222] is ___
3.34

Fill in: log10 IC50 of COc1cccc(NC(=O)NC2N=C(c3ccccc3F)c3ccccc3N(C)C2=O)c1 (centres unmarked) [Example 246] is ___
0.28

Fill in: log10 IC50 of O=C1Nc2ccccc2C(c2ccccc2F)=NC1CNc1cncc(Cl)n1 (racemic) [Example 70] is ___
4.18

Fill in: log10 IC50 of CCNC(=O)CN1C(=O)C(NC(=O)OCc2ccccc2)N=C(c2ccccc2)c2ccccc21 (centres unmarked) [Example 215] is ___
3.68

Fill in: log10 IC50 of O=C(CN1C(=O)C(NC(=O)OCc2ccccc2)N=C(c2ccccc2)c2ccccc21)NCc1ccccc1 (centres unmarked) [Example 212] is ___
3.28

Fill in: log10 IC50 of O=C1Nc2ccccc2C(c2ccccc2F)=NC1Cc1c[nH]c2ccc(F)cc12 (racemic) [Example 59] is ___
3.15

###

system-under-test: CCK receptor (brain, cerebral cortex) (Cavia porcellus)
Construct: Cerebral cortex was dissected and used as a receptor source; from tissue; host or cells: guinea pig cerebral cortex membranes (male Hartley)
procedure-summary: biochemical
Assay type: binding, Male Hartley guinea pigs
assay-context: guinea pig cerebral cortex, ^125 I-CCK-33, 25° C., 2 hours; read-out: IC50 ^125 I-CCK Brain
measurement-kind: IC50 (µM)
Numeric only. Scale: µM

Fill in: IC50 of CCNC(=O)CN1C(=O)C(NC(=O)OCc2ccccc2)N=C(c2ccccc2)c2ccccc21 (stereo not shown) is ___
1.8

Fill in: IC50 of O=C1Nc2ccc(Cl)cc2C(c2ccccc2)=N[C@@H]1Cc1cn(-c2ccc([N+](=O)[O-])cc2[N+](=O)[O-])cn1 is ___
38.6

Fill in: IC50 of CCOC(=O)C(C)N1C(=O)C(NC(=O)OCc2ccccc2)N=C(c2ccccc2)c2ccccc21 (stereo not shown) [Example 242] is ___
2.3

Fill in: IC50 of Cc1ccc2c(c1)N(C)C(=O)C(NC(=O)c1cc3ccccc3[nH]1)N=C2c1ccccc1 (stereo not shown) is ___
0.038

Fill in: IC50 of CN1C(=O)C(C(O)c2c[nH]c3ccccc23)N=C(c2ccccc2)c2ccccc21 (racemic) is ___
40

###

system-under-test: CCK receptor (pancreas) (Rattus norvegicus, UniProt P30551)
Construct: The whole pancreas was dissected free of fat tissue and was homogenized; from tissue; host or cells: rat pancreas membranes (Sprague-Dawley)
Sequence (P30551 1-444): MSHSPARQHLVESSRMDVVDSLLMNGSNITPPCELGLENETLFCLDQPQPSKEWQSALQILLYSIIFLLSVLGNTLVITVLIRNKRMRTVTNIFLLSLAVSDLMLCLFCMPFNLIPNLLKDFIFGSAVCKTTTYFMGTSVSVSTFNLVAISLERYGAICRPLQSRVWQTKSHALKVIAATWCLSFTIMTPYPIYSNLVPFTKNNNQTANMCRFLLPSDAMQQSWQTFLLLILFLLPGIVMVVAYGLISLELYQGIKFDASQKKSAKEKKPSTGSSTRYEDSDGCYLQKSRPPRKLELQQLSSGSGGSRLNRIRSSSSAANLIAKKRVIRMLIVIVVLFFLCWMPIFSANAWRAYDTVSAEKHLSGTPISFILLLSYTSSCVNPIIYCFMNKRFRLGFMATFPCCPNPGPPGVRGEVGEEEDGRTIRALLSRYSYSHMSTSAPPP
procedure-summary: CCK Receptor Binding (Pancreas): inhibition of ^125 I-CCK-33 binding
Set-up: species or system Male Sprague-Dawley rats
assay-context: IC50 ^125 I-CCK Pancreas, rat pancreas membranes, ^125 I-CCK-33, 37° C., 30 minutes
pIC50: −log10 of the molar value.
Classification field: Fulfilled = pIC50 at or over 5; Not fulfilled = pIC50 under 5.

Answer whether pIC50 of Cc1ccc(S(=O)(=O)NC(=O)NC2N=C(c3ccccc3)c3ccccc3N(C)C2=O)cc1 (centres unmarked) [Example 248] is greater than or equal to 5.
Not fulfilled

Answer whether pIC50 of CCOC(=O)C(C)N1C(=O)C(NC(=O)OCc2ccccc2)N=C(c2ccccc2)c2ccccc21 (centres unmarked) [Example 241] is greater than or equal to 5.
Fulfilled

Answer whether pIC50 of CN1C(=O)C(NC(=O)c2ccc(C(C)(C)C)cc2)N=C(c2ccccc2F)c2ccccc21 (centres unmarked) [Example 226] is greater than or equal to 5.
Fulfilled

Answer whether pIC50 of O=C(O)c1ccccc1C1=N[C@H](Cc2c[nH]c3ccccc23)C(=O)Nc2ccccc21 [Example 58] is greater than or equal to 5.
Not fulfilled

Answer whether pIC50 of O=C1[C@@H](Cc2c[nH]c3ccccc23)N=C(c2ccccc2)c2cc(Cl)ccc2N1Cc1ccccc1 [Example 30] is greater than or equal to 5.
Not fulfilled

Answer whether pIC50 of O=C1Nc2ccccc2C(c2ccccc2F)=NC1Cc1cccs1 (racemic) [Example 19] is greater than or equal to 5.
Not fulfilled

###

system-under-test: CCK receptor (brain, cerebral cortex) (Cavia porcellus)
Construct: Cerebral cortex was dissected and used as a receptor source; from tissue; host or cells: guinea pig cerebral cortex membranes (male Hartley)
procedure-summary: biochemical
Assay type: binding, Male Hartley guinea pigs
assay-context: IC50 ^125 I-CCK Brain, guinea pig cerebral cortex, ^125 I-CCK-33, 25° C., 2 hours
Description: 2. CCK Recepto Binding (Brain) CCK-33 was radiolabeled and the binding was Performed according to the description for the Pancreas method with modifications according to Saito et al., J. Neurochem. Cerebral cortex was dissected and used as a receptor source. Each gram of fresh guinea pig brain tissue was homogenized in 10 ml of Tris/Trizma buffer with a Brinkman polytron PT-10. […] The supernatant was aspirated and discarded, pellets were counted with a Beckman gamma 5000.
Where a name gives a salt, the structure may show the parent alone.
For each record, write down the corresponding pIC50.
# log scale: pIC50 equals minus log10 of the concentration in mol/L

Fill in: pIC50 of CN1C(=O)C(NC(=O)c2ccc(Br)cc2)N=C(c2ccccc2)c2ccccc21 (stereo not shown) [Example 216] is ___
5.62

Fill in: pIC50 of CN1C(=O)[C@@H](NC(=O)c2ccc(C(F)(F)F)cc2)N=C(c2ccccc2F)c2ccccc21 [Example 219] is ___
5.85

Fill in: pIC50 of CC(C)CC(N)C(=O)N1CC(CC2N=C(c3ccccc3)c3ccccc3NC2=O)c2ccccc21 (stereo not shown) [Example 227, hydrochloride] is ___
4.30

Fill in: pIC50 of O=C(O)CN1C(=O)C(NC(=O)c2cc3ccccc3[nH]2)N=C(c2ccccc2F)c2ccccc21 (racemic) [Example 113] is ___
5.25

The reported numbers originate from patent US4820834A.
